Reference source: patent US20150141411A1

readout: melting point (°C)

A. Cc1cn(-c2ccc3n(c2=O)CCCN(Cc2ccc(Cl)c(Cl)c2)C3=O)cn1
B. Cc1cn(-c2ccc3n(c2=O)C[C@@H](C)N(Cc2cn(C)c4cc(Cl)c(Cl)cc24)C3=O)cn1
Query string: Out of A and B , name the one with the higher melting point. // caller expects the label of the chosen entry
Result string: B

A. Cc1cn(-c2ccc3n(c2=O)C[C@@H](C)N(Cc2ccc(C(F)(F)F)cc2)C3=O)cn1
B. Cc1cn(-c2ccc3n(c2=O)CCN(c2cccc(C(F)(F)F)c2C)C3=O)cn1
Query string: Out of A and B , name the one with the higher melting point. // caller expects the label of the chosen entry
Result string: B
(B: 248.6 °C, A: 164.9 °C)
